- testedTarget: Protein cereblon/Androgen receptor (Homo sapiens) (UniProt P10275+Q96SW2)
- Sequence (P10275 whole entry, looked up): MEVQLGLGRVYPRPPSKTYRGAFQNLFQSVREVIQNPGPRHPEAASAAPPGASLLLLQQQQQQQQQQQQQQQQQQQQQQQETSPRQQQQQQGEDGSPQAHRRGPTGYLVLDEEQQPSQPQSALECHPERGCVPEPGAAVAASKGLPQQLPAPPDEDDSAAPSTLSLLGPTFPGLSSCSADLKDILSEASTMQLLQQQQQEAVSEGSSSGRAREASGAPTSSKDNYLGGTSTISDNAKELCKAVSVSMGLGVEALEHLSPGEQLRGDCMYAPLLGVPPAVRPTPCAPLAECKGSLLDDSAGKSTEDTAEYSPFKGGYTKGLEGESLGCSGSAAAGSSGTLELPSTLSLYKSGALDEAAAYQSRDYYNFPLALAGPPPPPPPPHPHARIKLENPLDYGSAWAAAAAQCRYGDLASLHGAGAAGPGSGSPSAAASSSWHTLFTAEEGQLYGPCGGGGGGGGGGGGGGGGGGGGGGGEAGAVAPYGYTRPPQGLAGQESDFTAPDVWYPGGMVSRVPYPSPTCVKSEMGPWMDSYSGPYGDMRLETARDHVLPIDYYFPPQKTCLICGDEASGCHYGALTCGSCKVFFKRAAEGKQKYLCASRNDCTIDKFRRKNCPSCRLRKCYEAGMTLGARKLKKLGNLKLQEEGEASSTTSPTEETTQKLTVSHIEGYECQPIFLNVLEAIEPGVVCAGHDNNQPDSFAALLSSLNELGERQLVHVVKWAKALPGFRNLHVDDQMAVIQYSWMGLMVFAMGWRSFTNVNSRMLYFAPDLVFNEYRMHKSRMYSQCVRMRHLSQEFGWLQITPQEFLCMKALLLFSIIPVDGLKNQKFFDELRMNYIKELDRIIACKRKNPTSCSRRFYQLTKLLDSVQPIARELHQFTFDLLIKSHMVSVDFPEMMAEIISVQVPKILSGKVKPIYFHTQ
- Sequence (Q96SW2 whole entry, looked up): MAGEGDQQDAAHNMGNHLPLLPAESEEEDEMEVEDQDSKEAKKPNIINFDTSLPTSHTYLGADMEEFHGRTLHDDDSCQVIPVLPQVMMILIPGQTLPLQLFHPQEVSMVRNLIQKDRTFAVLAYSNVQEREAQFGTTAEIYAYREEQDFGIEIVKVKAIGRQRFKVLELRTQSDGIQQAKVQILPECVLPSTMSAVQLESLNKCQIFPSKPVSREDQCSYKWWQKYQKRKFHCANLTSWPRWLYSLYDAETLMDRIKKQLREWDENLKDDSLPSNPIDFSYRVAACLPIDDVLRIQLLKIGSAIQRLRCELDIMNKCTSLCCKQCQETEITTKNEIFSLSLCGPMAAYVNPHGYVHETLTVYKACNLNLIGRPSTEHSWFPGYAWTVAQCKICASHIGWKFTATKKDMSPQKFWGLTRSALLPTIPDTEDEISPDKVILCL
- assayProtocol: In vivo protac activity at CRBN/AR in human VCaP cells xenografted in CB17 mouse assessed as increase in Androgen receptor degradation at 10 mg/kg, po for 16 hrs by ELISA
- Format: functional, organism-based
testReadout: Activity (%)
One number for each entry, in %.

Lab note: each molecule below needs its Activity filled in.
1. CC1(C)[C@H](NC(=O)c2ccc(CCCCN3CCN(c4ccc5c(c4)C(=O)N(C4CCC(=O)NC4=O)C5=O)CC3)nc2)C(C)(C)[C@H]1Oc1ccc(C#N)c(Cl)c1 (some centres undefined)
2. CC1(C)[C@H](NC(=O)c2ccc(N3CCN(CC4CCN(c5ccc6c(c5)C(=O)N(C5CCC(=O)NC5=O)C6=O)CC4)CC3)cc2)C(C)(C)[C@H]1Oc1ccc(C#N)c(Cl)c1 (some centres undefined)
3. CC1(C)[C@H](NC(=O)c2ccc(C3CCC(CN4CCN(c5ccc6c(c5)C(=O)N(C5CCC(=O)NC5=O)C6=O)CC4)CC3)cc2)C(C)(C)[C@H]1Oc1ccc(C#N)c(Cl)c1 (some centres undefined)

## Output
1. 10
2. 1
3. 1

---

Could you please report measured Activity for the items listed next?
- testedTarget: Protein cereblon/Androgen receptor (Homo sapiens) (UniProt P10275+Q96SW2)
- assayProtocol: In vivo protac activity at CRBN/AR in human VCaP cells xenografted in CB17 mouse assessed as increase in Androgen receptor degradation at 10 mg/kg, po for 16 hrs by ELISA
- Assay type: functional, organism-based

>  <compound>
CC1(C)[C@H](NC(=O)c2ccc(N3CCC(CN4CCN(c5ccc6c(c5)C(=O)N(C5CCC(=O)NC5=O)C6=O)CC4)CC3)nc2)C(C)(C)[C@H]1Oc1ccc(C#N)c(Cl)c1 (stereo partly specified)

>  <assayValue>
< 1%

$$$$
>  <compound>
CC1(C)[C@H](NC(=O)c2ncc(N3CCN(CCCCCOc4ccc5c(c4)C(=O)N(C4CCC(=O)NC4=O)C5=O)CC3)cn2)C(C)(C)[C@H]1Oc1ccc(C#N)c(Cl)c1 (stereo partly specified)

>  <assayValue>
1%

$$$$
>  <compound>
CC1(C)[C@H](NC(=O)c2cnc(N3CCN(CCCCCOc4ccc5c(c4)C(=O)N(C4CCC(=O)NC4=O)C5=O)CC3)nc2)C(C)(C)[C@H]1Oc1ccc(C#N)c(Cl)c1 (stereo partly specified)

>  <assayValue>
< 1%

$$$$
>  <compound>
CC1(C)[C@H](NC(=O)c2ccc(N3CCN(CCCOc4ccc5c(c4)C(=O)N(C4CCC(=O)NC4=O)C5=O)CC3)cc2)C(C)(C)[C@H]1Oc1ccc(C#N)c(Cl)c1 (stereo partly specified)

>  <assayValue>
< 1%

$$$$
>  <compound>
CC1(C)[C@H](NC(=O)c2ccc(N3CCN(CC4CN(c5ccc6c(c5)C(=O)N(C5CCC(=O)NC5=O)C6=O)C4)CC3)cc2)C(C)(C)[C@H]1Oc1ccc(C#N)c(Cl)c1 (stereo partly specified)

>  <assayValue>
< 1%

$$$$

Please turn your attention to the following entry.
## Input Consider the compound CC1(C)[C@H](NC(=O)c2ccc(N3CCN(CCCCCOc4ccc5c(c4)C(=O)N(C4CCC(=O)NC4=O)C5=O)CC3)nc2)C(C)(C)[C@H]1Oc1ccc(C#N)c(Cl)c1 (stereo partly specified) and give its measured Activity.
## Output < 1%
